Reference source: ChEMBL document CHEMBL2057093

- Test Details: Cytotoxicity against african green monkey Vero cells after 72 hrs by spectrophotometric analysis
- Assay type: cell-based
- Test Settings: chlorocebus sabaeus
CC50 at 72 h less than 20 µM is Fulfilled; CC50 at 72 h greater than or equal to 20 µM is Not fulfilled.

> print(dat)
                                    compound   answer.label
 1  C=CCOC1=CC(=O)c2ccccc2C12CO2 (stereo not given)      Fulfilled
 2  CC1(C)CC2=C(O1)C1(CO1)c1ccccc1C2=O (stereo not given)      Fulfilled
 3                C=CCOC1=CC(=O)c2ccccc2C1=O      Fulfilled
 4             O=C1C(Cl)=C(Cl)C(=O)c2ccccc21      Fulfilled
 5         CC1(C)CCC2=C(O1)C(=O)c1ccccc1C2=O      Fulfilled
 6  COC1=CC(=O)c2ccccc2C12CO2 (stereo not given)  Not fulfilled
 7          CC1(C)CC2=C(O1)C(=O)c1ccccc1C2=O      Fulfilled
 8  O=C1C(Cl)=C(Cl)C2(CO2)c2ccccc21 (stereo not given)      Fulfilled
 9  CC1(C)CCC2=C(O1)C1(CO1)c1ccccc1C2=O (stereo not given)  Not fulfilled
10      CC1(C)CCC2=C(O1)C(=O)C1=C(CCCC1)C2=O      Fulfilled
11  CC1(C)CCC2=C(O1)C1(CO1)C1=C(CCCC1)C2=O (stereo not given)  Not fulfilled
12  CC1(C)CCC23CC2(O1)C(=O)c1ccccc1C3=O (stereo not given)  Not fulfilled
13       O=C(Cn1ccnc1[N+](=O)[O-])NCc1ccccc1  Not fulfilled
14                   COC1=CC(=O)c2ccccc2C1=O      Fulfilled
15         CC1(C)CCC2=C(O1)c1ccccc1C(=O)C2=O      Fulfilled
